Reference source for all entries: ChEMBL document CHEMBL4513216

Reported INHIBITION values for a set of molecules
test system: Plasmodium berghei; test: Screen against P. berghei liver stage (PbLuc), transformed with Luciferase, at 10uM; type: functional, HepG2; conditions: tested at 10 uM
In all, about 69,000 compounds went through this assay and about 8,600 (12%) showed an effect of 50% or more. Many of the other results were omitted from the sample, so strong results are more common in it than they were.
metric: INHIBITION (%)

| molecule | metric | recorded_measurement |
| --- | --- | --- |
| O=C1CN(C(=O)c2cccc(C(F)(F)F)c2)CC(O)CN1CC1CC1 (stereo not drawn) | INHIBITION | 25.3 |
| CC(NC(=O)NCCn1ccnc1)c1nncn1C (stereo not drawn) | INHIBITION | 39.3 |
| CC(=O)N1CCN(c2cc(-n3cccc3)ncn2)CC1 | INHIBITION | -12.1 |
| Cc1nn(CCO)cc1CN1CCC(N2CCC(O)CC2)CC1 | INHIBITION | 50.5 |
| CCOc1cc(C(=O)N2CCN(CC)CC2)cc2occc12 | INHIBITION | 9.32 |
| CCOc1cc(C(=O)N2CCOCC2)cc2occc12 | INHIBITION | 36.6 |
| CC(C)(C)CN1CC(O)CN(C(=O)c2cccc(C(F)(F)F)c2)CC1=O (stereo not drawn) | INHIBITION | 60.8 |
| Cc1nn(C)c(C)c1-c1ccc(=O)n(C(C)C(=O)NC2CCCCC2)n1 (stereo not drawn) | INHIBITION | 47.6 |
| CS(=O)(=O)c1cc(Cl)cnc1C1CCN(C(=O)C2CCCO2)CC1 (stereo not drawn) | INHIBITION | 12.75 |
| CCn1cc(CN2CCC(NS(C)(=O)=O)CC2)cc1C#N | INHIBITION | 62.4 |
| CCn1cc(CN2CCC(C3CCN(C)CC3)CC2)cc1C#N | INHIBITION | 66.1 |
| CCn1cc(CN2CCC(c3ccncc3)CC2)cc1C#N | INHIBITION | 13 |
| CC(C)CN1CC(O)CN(C(=O)c2cccc(C(F)(F)F)c2)CC1=O (stereo not drawn) | INHIBITION | 45.7 |
